Source: ChEMBL document CHEMBL1201862

- System: K562
- protocol_text: NCI tumour cell line growth inhibition, 48 h
Activity calls are given as the source filed them. Rule as the data show it: active = GI50 up to about 1.1 µM and inactive = higher.
Outcome field: choose from Yes = active, No = inactive

O=S(=O)(O)c1c(/N=N/c2c(O)ccc3ccccc23)ccc2ccccc12    No
CC1=Nc2sc3c(c2C2=NCCN12)CCCC3    No

Please indicate how the test categorized O=C(Cc1ccccc1)NN1C(=O)C(Cl)C1c1ccccc1 (stereo not given) .
No

Would you mind telling me which call this test gave `Nn1c(S)nnc1NNC(=O)C(=O)Nc1cc(Cl)c(Cl)cc1Cl` ?
Yes

# fetch the recorded call for `Cc1ncc([N+](=O)[O-])n1CCNS(=O)(=O)CCCn1ncnc1[N+](=O)[O-]` here
No

----------
- Tested on: SNB-75
- protocol_text: NCI tumour cell line growth inhibition, 48 h
Activity calls are given as the source filed them. No stated cut-off is given here; in the data, active = GI50 up to about 1.1 µM and inactive = higher.
Each item that follows carries a reported GI50.

N/N=C(\CC1OC(=O)c2ccccc21)c1ccco1 (centres undefined)    > 100 µM (inactive)
N=C(N)NS(=O)(=O)c1ccc(NC(=O)c2ccc3nc4ccccc4c(N)c3c2)cc1    > 100 µM (inactive)
COC(=O)c1cc2c3c(ccc2[nH]1)N(C(=O)c1cc2cc(OC)c(OC)c(OC)c2[nH]1)CC3CCl (centres undefined)    > 100 µM (inactive)

Reported GI50 for CCOC(=O)c1c(N)sc2c1CC(C)CC2 (centres undefined) was 26.5 µM (inactive)

For record `O=C1C(Cl)=C(NCCN2CCOCC2)C(=O)c2c(O)ccc(O)c21` the listed GI50 is 1.71 µM (inactive)

The recorded GI50 for O=C(O)C1CCCCC1C(=O)Nn1cnnc1 (centres undefined) is > 100 µM (inactive)

GI50 measured on `CCCCSC1=N/C(=C\c2ccccc2O)C(Cl)=N1` = > 100 µM (inactive)

CCOC(=O)C(NC(=O)c1ccccc1)(Nc1ccc(S(=O)(=O)Nc2cc(C)on2)cc1)C(F)(F)F (centres undefined) has a reported GI50 of > 100 µM (inactive)

Lab note: `CS(=O)(=O)OCC(CCl)(CCl)CCl` gave GI50 of > 100 µM (inactive)

Data point: CC(C)C(Nc1c2ccccc2[n+]([O-])c2ccccc12)C(=O)O (centres undefined) ; GI50 = 58.9 µM (inactive)

The reported value for O=C1Nc2cc(Cl)ccc2N=CC1NC(=O)C(c1ccccc1)c1ccccc1Cl (centres undefined) in terms of GI50 is > 100 µM (inactive)

// GI50 value for OC12c3ccccc3C1CCCCC2N1CCCC1 (centres undefined) : > 100 µM (inactive)

// field: GI50; key: `C/N=C/N(C)c1c2ccccc2nc2ccccc12` ; value = 90.6 µM (inactive)

The molecule listed as C/C(=N\NS(=O)(=O)c1ccc(C)cc1)C(CN1CCOCC1)C(c1ccccc1)c1c(O)c2ccccc2oc1=O (centres undefined) shows GI50 equal to > 100 µM (inactive)

----------
Below: a set of entries, each annotated with reported GI50.
- Test system: HCT-15

// worked examples, GI50 included
COC(=O)/C(=C\c1ccc(N(CCC#N)CCC#N)cc1)NC(=O)c1cc([N+](=O)[O-])ccc1Cl    > 100 µM
Cc1cc(N(CCC#N)CCC#N)ccc1/C=C(\NC(=O)/C=C/c1ccccc1)NC(=O)Nc1ccccc1C    > 100 µM
Cc1cc2c(cc1C)[n+]([O-])c(C(=O)CC(=O)C(=O)Nc1c(C(C)C)cccc1C(C)C)c(C)[n+]2[O-]    > 100 µM
O=c1n(Cc2ccccc2)c(=O)n2c(=O)n(Cc3ccccc3)c(=O)n12    > 100 µM

Test item O=C(Nc1ccn(C2CC(O)C(CO)O2)c(=O)n1)c1ccccc1 (stereo not given) ; HCT-15; reported GI50 was > 100 µM

Record `CN(C)/C=C(\C(=O)c1ccccc1)n1nc(-c2ccccc2)cc1-c1ccccc1` / HCT-15, GI50 recorded as > 10 µM

For `Oc1ccc[n+](Cc2ccccc2)c1` on HCT-15, measured GI50 was > 100 µM
